biological target: Plasminogen (Homo sapiens, UniProt P00747); assay: Allosteric inhibition of full length human plasmin by using chromogenic substrate spectrozyme PL preincubated for 5 mins followed by substrate addition by spectrophotometric method
Sequence (P00747 97-580 limits assumed): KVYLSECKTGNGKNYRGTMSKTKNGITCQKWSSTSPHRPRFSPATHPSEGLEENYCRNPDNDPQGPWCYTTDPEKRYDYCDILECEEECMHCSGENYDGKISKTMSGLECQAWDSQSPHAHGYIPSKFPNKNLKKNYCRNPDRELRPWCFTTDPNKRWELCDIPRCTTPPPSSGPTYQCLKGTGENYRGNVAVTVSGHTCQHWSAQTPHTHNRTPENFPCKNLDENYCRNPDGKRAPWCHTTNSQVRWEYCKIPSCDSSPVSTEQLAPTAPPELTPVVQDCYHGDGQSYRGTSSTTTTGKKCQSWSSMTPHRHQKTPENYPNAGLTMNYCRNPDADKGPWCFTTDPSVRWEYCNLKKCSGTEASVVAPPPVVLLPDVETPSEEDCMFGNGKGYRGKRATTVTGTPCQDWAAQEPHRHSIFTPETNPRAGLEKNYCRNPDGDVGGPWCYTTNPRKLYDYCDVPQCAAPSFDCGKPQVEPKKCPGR
Sequence (P00747 581-810 limits assumed): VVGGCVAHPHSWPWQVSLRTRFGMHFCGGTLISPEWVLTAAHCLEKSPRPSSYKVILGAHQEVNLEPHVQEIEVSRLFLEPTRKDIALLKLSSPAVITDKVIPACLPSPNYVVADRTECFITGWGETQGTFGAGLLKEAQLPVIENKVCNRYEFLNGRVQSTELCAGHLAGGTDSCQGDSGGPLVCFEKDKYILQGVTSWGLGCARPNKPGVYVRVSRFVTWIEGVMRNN
readoutName: IC50 (µM)

Past entries and their recorded results:
- smilesCode: "O=c1c(OS(=O)(=O)O)c(-c2ccc(OS(=O)(=O)O)c(OS(=O)(=O)O)c2)oc2cc(OS(=O)(=O)O)cc(OCc3ccc(-c4ccc(COc5cc(OS(=O)(=O)O)cc6oc(-c7ccc(OS(=O)(=O)O)c(OS(=O)(=O)O)c7)c(OS(=O)(=O)O)c(=O)c56)cc4)cc3)c12"
  IC50 (µM): 37
- smilesCode: "O=c1cc(-c2ccc(OS(=O)(=O)O)cc2)oc2cc(OS(=O)(=O)O)cc(OCCOc3cc(OS(=O)(=O)O)cc4oc(-c5ccc(OS(=O)(=O)O)cc5)cc(=O)c34)c12"
  IC50 (µM): 71
- smilesCode: "O=c1c(OS(=O)(=O)O)c(-c2ccc(OS(=O)(=O)O)c(OS(=O)(=O)O)c2)oc2cc(OS(=O)(=O)O)cc(OCc3cccc(COc4cc(OS(=O)(=O)O)cc5oc(-c6ccc(OS(=O)(=O)O)c(OS(=O)(=O)O)c6)c(OS(=O)(=O)O)c(=O)c45)n3)c12"
  IC50 (µM): 231
- smilesCode: "O=c1cc(-c2ccc(OS(=O)(=O)O)cc2)oc2cc(OS(=O)(=O)O)cc(OCc3ccc(-c4ccc(COc5cc(OS(=O)(=O)O)cc6oc(-c7ccc(OS(=O)(=O)O)cc7)cc(=O)c56)cc4)cc3)c12"
  IC50 (µM): 47
- smilesCode: "O=c1c(OS(=O)(=O)O)c(-c2ccc(OS(=O)(=O)O)c(OS(=O)(=O)O)c2)oc2cc(OS(=O)(=O)O)cc(OCc3cccc(COc4cc(OS(=O)(=O)O)cc5oc(-c6ccc(OS(=O)(=O)O)c(OS(=O)(=O)O)c6)c(OS(=O)(=O)O)c(=O)c45)c3)c12"
  IC50 (µM): 73
- smilesCode: "O=c1cc(-c2ccc(OS(=O)(=O)O)cc2)oc2cc(OS(=O)(=O)O)cc(OCc3cccc(COc4cc(OS(=O)(=O)O)cc5oc(-c6ccc(OS(=O)(=O)O)cc6)cc(=O)c45)c3)c12"
  IC50 (µM): 34

A = O=c1cc(-c2ccc(OS(=O)(=O)O)cc2)oc2cc(OS(=O)(=O)O)cc(OC/C=C/COc3cc(OS(=O)(=O)O)cc4oc(-c5ccc(OS(=O)(=O)O)cc5)cc(=O)c34)c12
B = O=c1cc(-c2ccc(OS(=O)(=O)O)cc2)oc2cc(OS(=O)(=O)O)cc(OCc3cccc(COc4cc(OS(=O)(=O)O)cc5oc(-c6ccc(OS(=O)(=O)O)cc6)cc(=O)c45)n3)c12
## Input Lower IC50: A or B ? Your answer should be the label attached to the chosen record.
## Output B

a = Cc1cc(COc2cc(OS(=O)(=O)O)cc3oc(-c4ccc(OS(=O)(=O)O)c(OS(=O)(=O)O)c4)c(OS(=O)(=O)O)c(=O)c23)c(C)cc1COc1cc(OS(=O)(=O)O)cc2oc(-c3ccc(OS(=O)(=O)O)c(OS(=O)(=O)O)c3)c(OS(=O)(=O)O)c(=O)c12
b = O=c1cc(-c2ccc(OS(=O)(=O)O)cc2)oc2cc(OS(=O)(=O)O)cc(OCc3ccc(COc4cc(OS(=O)(=O)O)cc5oc(-c6ccc(OS(=O)(=O)O)cc6)cc(=O)c45)cc3)c12
## Input Just curious, which one has the larger IC50 reading, a or b ? Your answer should be the label attached to the chosen record.
## Output b
(b: 34 µM, a: 6.5 µM)

# credit: ChEMBL document CHEMBL4043061
